- Tested on: plants
- test-summary: Test D pre-emergence, other plants of Tables D1 and D3
- Assay type: in vivo
- condition-description: pre-emergence, rate 30, 20 DAA, 100=total damage, 0=no damage
damage to plant, ALOMY by entry:
readout-kind: damage to plant, ALOMY

CN1CC(c2cc(C(F)(F)F)n(C)n2)C(C(=O)Nc2ccc(F)cc2F)C1=O (racemic) [Compound 6]
0
CN1CC(c2cnn(C)c2C(F)(F)F)C(C(=O)Nc2cccc(F)c2F)C1=O (racemic) [Compound 25]
0
CCn1nc([C@@H]2CN(C)C(=O)[C@H]2C(=O)Nc2cccc(F)c2F)c2cccc(F)c21 [Compound 14]
0
CN1C[C@H](c2nn(C)c3c(F)cccc23)[C@@H](C(=O)Nc2cccc(F)c2F)C1=O [Compound 2]
0

====

CHEAL damage rating (100=total damage to plant; 0=no damage to plant) values by entry
- Tested on: plants
- test-summary: Test D post-emergence, other plants of Tables D2 and D4
- Assay type: in vivo
- condition-description: CHEAL; "Cereals" Postemergent; Rates 130; evaluated after 15 d
readout-kind: CHEAL damage rating (100=total damage to plant; 0=no damage to plant)

CN1CC(c2cc(C(F)(F)F)n(C)n2)C(C(=O)Nc2ccc(F)nc2F)C1=O (racemic)
0
CN1CC(c2cc(C(F)(F)F)n(C)n2)C(C(=O)Nc2cccc(F)c2F)C1=O (racemic)
0
CN1CC(c2cc(C(F)(F)F)n(C)n2)C(C(=O)Nc2cccc(F)n2)C1=O (racemic)
0
CCn1nc([C@@H]2CN(C)C(=O)[C@H]2C(=O)Nc2cccc(F)c2F)c2cccc(F)c21
50

====

- System: plants
- test-summary: Test D pre-emergence, other plants of Tables D1 and D3
- Assay type: in vivo
- condition-description: pre-emergence, rate 500, 20 DAA, 100=total damage, 0=no damage
readout-kind: damage to plant, AVEFA

COc1c(F)cccc1NC(=O)C1C(=O)N(C)CC1c1cc(C(F)(F)F)n(C)n1 (racemic)
40
CN1CC(c2cc(Cl)n(C)n2)C(C(=O)Nc2ccc(F)c(F)c2F)C1=O (racemic)
10
CCn1nc([C@H]2CN(C)C(=O)[C@@H]2C(=O)Nc2cccc(F)c2F)c2cc(F)ccc21
10
CN1CC(c2cc(C(F)(F)F)n(C)n2)C(C(=O)Nc2ccc(F)c(F)c2F)C1=O (racemic)
80
CN1CC(c2cc(C(F)(F)F)n(C)n2)C(C(=O)Nc2ccc(F)cc2F)C1=O (racemic)
20
CN1CC(c2cc(C(F)(F)F)n(C)n2)C(C(=O)Nc2ccc(F)nc2F)C1=O (racemic)
0
CCn1nc([C@H]2CN(C)C(=O)[C@@H]2C(=O)Nc2cccc(F)c2F)c2c(F)cccc21
50
CN1CC(c2cc(C(F)(F)F)n(C)n2)C(C(=O)Nc2cccc(F)c2C(F)(F)F)C1=O (racemic)
70

====

- Test system: plants
- test-summary: Test D pre-emergence, other plants of Tables D1 and D3
- Type: in vivo
- condition-description: EPHHL; preemergent; rate 30; 20 DAA
The entries below are paired with their reported damage to plant (100=total damage to plant; 0=no damage to plant), EPHHL.
readout-kind: damage to plant (100=total damage to plant; 0=no damage to plant), EPHHL

CCn1nc([C@H]2CN(C)C(=O)[C@@H]2C(=O)Nc2cccc(F)c2F)c2cc(F)ccc21 [Compound 8]
0
CN1CC(c2cc(C(F)(F)F)n(C)n2)C(C(=O)Nc2ccccc2F)C1=O (racemic) [Compound 9]
0
CN1C[C@H](c2nn(C)c3c(F)cccc23)[C@@H](C(=O)Nc2cccc(F)c2F)C1=O [Compound 2]
0
CN1CC(c2cc(C(F)(F)F)n(C)n2)C(C(=O)Nc2cccc(F)c2C(F)(F)F)C1=O (racemic) [Compound 19]
0
CN1CC(c2cc(C(F)(F)F)n(C)n2)C(C(=O)Nc2cccc(F)n2)C1=O (racemic) [Compound 24]
0

====

Examples of compounds with documented damage to plant (100=total damage to plant; 0=no damage to plant), ECHCG follow.
- Test system: plants
- test-summary: Test D pre-emergence, other plants of Tables D1 and D3
- Assay type: in vivo
- condition-description: ECHCG; preemergent; rate 130; 20 DAA
readout-kind: damage to plant (100=total damage to plant; 0=no damage to plant), ECHCG

CN1CC(c2cc(C(F)(F)F)n(C)n2)C(C(=O)Nc2ccc(F)c(F)c2F)C1=O (racemic)
90
CN1CC(c2cc(C(F)(F)F)n(C)n2)C(C(=O)Nc2ccccc2F)C1=O (racemic)
90
CCn1nc([C@H]2CN(C)C(=O)[C@@H]2C(=O)Nc2cccc(F)c2F)c2cc(F)ccc21
90
CN1C[C@H](c2nn(C)c3c(F)cccc23)[C@@H](C(=O)Nc2cccc(F)c2F)C1=O
90
CN1CC(c2cc(C(F)(F)F)n(C)n2)C(C(=O)Nc2ccc(F)cc2F)C1=O (racemic)
80

====

- Tested on: barnyardgrass (Echinochloa crus-galli, ECHCG)
- test-summary: Test A pre-emergence, barnyardgrass
- Assay type: in vivo
- condition-description: Pre-Emergence at 62.5 g/ha; after 13 d
readout-kind: damage to plant (100=total damage; 0=no damage) ECHCG

CN1CC(c2cc(C(F)(F)F)n(C)n2)C(C(=O)Nc2ccc(F)cc2C(C)(F)F)C1=O (racemic)
90
Cn1nc([C@H]2CNC(=O)[C@@H]2C(=O)Nc2cccc(F)n2)cc1C(C)(C)C
0
CN1CC(c2cc(C(F)(F)F)n(C)n2)C(C(=O)Nc2ccccc2F)C1=O (racemic)
90
CN1CC(c2cc(C(F)(F)F)n(C)n2)C(C(=O)Nc2cccc(F)c2F)C1=O (racemic)
100

====

- Tested on: ivy-leaved morning glory (Ipomoea hederacea, IPOHE)
- test-summary: Test A post-emergence, ivy-leaved morning glory
- Format: in vivo
- condition-description: Post-Emergence at 62.5 g/ha; after 13 d
Here, each record is paired with measured damage to plant (100=total damage; 0=no damage) IPOHE data.
readout-kind: damage to plant (100=total damage; 0=no damage) IPOHE

Cn1nc([C@H]2CNC(=O)[C@@H]2C(=O)Nc2cccc(F)n2)cc1C(C)(C)C [Compound 1]
0
CN1CC(c2cc(C(F)(F)F)n(C)n2)C(C(=O)Nc2ccc(F)nc2F)C1=O (racemic) [Compound 22]
10
CN1CC(c2nn(C)c(Cl)c2Br)C(C(=O)Nc2cccc(F)c2F)C1=O (racemic) [Compound 28]
0
CN1CC(c2cnn(C)c2C(F)(F)F)C(C(=O)Nc2cccc(F)c2F)C1=O (racemic) [Compound 25]
40

====

- System: redroot pigweed (Amaranthus retroflexus, AMARE)
- test-summary: Test A pre-emergence, redroot pigweed
- Assay type: in vivo
- condition-description: Pre-Emergence at 250 g/ha; after 13 d
Quick reference for damage to plant (100=total damage; 0=no damage) AMARE among some compounds
readout-kind: damage to plant (100=total damage; 0=no damage) AMARE

CCc1ccccc1NC(=O)C1C(=O)N(C)CC1c1cc(C(F)(F)F)n(C)n1 (racemic) [Compound 20]
70
COc1c(F)cccc1NC(=O)C1C(=O)N(C)CC1c1cc(C(F)(F)F)n(C)n1 (racemic) [Compound 18]
0
CN1CC(c2cc(C(F)(F)F)n(C)n2)C(C(=O)Nc2ccc(F)nc2F)C1=O (racemic) [Compound 22]
20
CN1CC(c2nn(C)c(Cl)c2Br)C(C(=O)Nc2ccc(F)c(F)c2F)C1=O (racemic) [Compound 32]
0
CN1CC(c2cnn(C)c2C(F)(F)F)C(C(=O)Nc2cccc(F)c2F)C1=O (racemic) [Compound 25]
0
CN1CC(c2cc(C(F)(F)F)n(C)n2)C(C(=O)Nc2ccccc2F)C1=O (racemic) [Compound 9]
20
CCn1nc(C2CN(C)C(=O)C2C(=O)Nc2cccc(F)c2F)c2cccc(F)c21 (racemic) [Compound 10]
10
CN1CC(c2cc(Cl)n(C)n2)C(C(=O)Nc2ccc(F)c(F)c2F)C1=O (racemic) [Compound 31]
0
